# TGT: hERG (KCNH2) (Homo sapiens)
# Sequence (Q12809 whole entry): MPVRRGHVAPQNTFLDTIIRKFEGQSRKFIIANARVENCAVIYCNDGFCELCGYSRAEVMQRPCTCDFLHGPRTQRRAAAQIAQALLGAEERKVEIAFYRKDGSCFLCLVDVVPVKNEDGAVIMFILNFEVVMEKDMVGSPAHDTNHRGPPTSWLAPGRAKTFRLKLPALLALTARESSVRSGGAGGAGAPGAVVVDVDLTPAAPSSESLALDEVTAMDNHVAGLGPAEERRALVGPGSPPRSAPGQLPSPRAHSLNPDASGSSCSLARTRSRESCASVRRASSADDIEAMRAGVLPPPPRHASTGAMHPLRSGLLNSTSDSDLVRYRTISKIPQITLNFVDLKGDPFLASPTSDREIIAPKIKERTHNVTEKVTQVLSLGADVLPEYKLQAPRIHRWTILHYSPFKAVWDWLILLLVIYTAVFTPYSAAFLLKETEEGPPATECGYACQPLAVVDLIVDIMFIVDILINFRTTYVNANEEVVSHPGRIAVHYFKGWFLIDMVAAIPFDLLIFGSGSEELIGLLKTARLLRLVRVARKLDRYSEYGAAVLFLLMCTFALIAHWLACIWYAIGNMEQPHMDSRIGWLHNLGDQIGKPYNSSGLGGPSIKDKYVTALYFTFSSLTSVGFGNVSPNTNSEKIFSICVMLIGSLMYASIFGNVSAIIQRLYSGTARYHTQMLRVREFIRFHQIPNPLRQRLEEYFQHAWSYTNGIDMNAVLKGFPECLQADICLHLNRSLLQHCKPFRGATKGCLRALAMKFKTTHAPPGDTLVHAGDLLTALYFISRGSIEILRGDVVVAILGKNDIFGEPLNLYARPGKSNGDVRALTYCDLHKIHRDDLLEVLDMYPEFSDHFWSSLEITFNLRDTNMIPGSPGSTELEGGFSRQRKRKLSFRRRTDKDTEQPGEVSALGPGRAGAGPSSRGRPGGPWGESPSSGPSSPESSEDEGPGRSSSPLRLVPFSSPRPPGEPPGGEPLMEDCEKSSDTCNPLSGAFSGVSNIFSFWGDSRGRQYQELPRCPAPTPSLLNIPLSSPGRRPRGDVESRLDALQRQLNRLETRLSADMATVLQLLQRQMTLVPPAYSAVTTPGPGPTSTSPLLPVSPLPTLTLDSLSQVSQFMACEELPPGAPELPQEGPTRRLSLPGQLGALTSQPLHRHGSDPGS
# ASSAY COMMENT: Inhibition of human ERG expressed in CHO cells at 30 uM by whole-cell patch clamp assay relative to control
# Assay type: toxicity, cell-based
# CONDITION INFO: CHO cells expressing hERG
REPORTED PROPERTY: inhibition at 30 µM (%)
Express it in %; write the number only.

**Q:** Entry `COc1c(C(=O)Nc2ccc3c(C)nn(CCC4CCN(C)CC4)c3c2)ccc2c1C=CC(C)(C)O2` has what inhibition at 30 µM?
**A:** 87.1

----------
# TGT: CYP2C19 (Homo sapiens)
# Sequence (P33261 whole entry): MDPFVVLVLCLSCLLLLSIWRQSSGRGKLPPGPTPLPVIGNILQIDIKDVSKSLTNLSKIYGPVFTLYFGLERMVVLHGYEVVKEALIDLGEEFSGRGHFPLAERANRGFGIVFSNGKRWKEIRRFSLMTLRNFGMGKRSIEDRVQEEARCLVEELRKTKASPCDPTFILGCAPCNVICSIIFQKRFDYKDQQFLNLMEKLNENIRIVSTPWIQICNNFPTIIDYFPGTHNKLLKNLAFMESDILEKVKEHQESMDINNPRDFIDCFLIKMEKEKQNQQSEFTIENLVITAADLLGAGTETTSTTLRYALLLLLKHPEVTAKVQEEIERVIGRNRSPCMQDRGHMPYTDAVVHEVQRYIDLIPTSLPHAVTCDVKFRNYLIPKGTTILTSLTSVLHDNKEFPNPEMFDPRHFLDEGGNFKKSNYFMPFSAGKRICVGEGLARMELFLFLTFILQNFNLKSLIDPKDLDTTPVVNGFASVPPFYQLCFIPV
# ASSAY COMMENT: Inhibition of CYP2C19 (unknown origin) at 10 uM relative to control
# Type: ADME
REPORTED PROPERTY: inhibition at 10 µM (%)
Express it in %; write the number only.

**Q:** Entry `COc1c(C(=O)Nc2ccc3c(C)nn(CCC4CCN(C)CC4)c3c2)ccc2c1C=CC(C)(C)O2` has what inhibition at 10 µM?
**A:** 56.3

Hey, just so you know, these numbers are from ChEMBL document CHEMBL5608181.
